Assay: Tmax in ICR mouse at 15 mg/kg, IG measured for 12 hrs by LC-MS/MS analysis
Format: ADME, organism-based
Details: in vivo, po
READOUT: Tmax (min)
Report as a plain number; the unit min is understood.

C=C(C)[C@@H]1CC[C@]2(C(=O)O[C@@H]3O[C@H](CO[C@@H]4O[C@H](CO)[C@@H](O[C@@H]5O[C@@H](C)[C@H](O)[C@@H](O)[C@H]5O)[C@H](O)[C@H]4O)[C@@H](O)[C@H](O)[C@H]3O)CC[C@]3(C)[C@H](CC[C@@H]4[C@@]5(C)CC[C@H](O[C@@H]6OC[C@H](O)[C@H](O)[C@H]6O[C@@H]6O[C@@H](C)[C@H](O)[C@@H](O)[C@H]6O)[C@@](C)(CO)[C@@H]5CC[C@]43C)[C@@H]12: 27.6

// next entry
Look up and report measured Tmax for this entry: `C=C(C)[C@@H]1CC[C@]2(C(=O)NCCCCCC(=O)OC)CC[C@]3(C)[C@H](CC[C@@H]4[C@@]5(C)CC[C@H](O[C@@H]6OC[C@H](O)[C@H](O)[C@H]6O[C@@H]6O[C@@H](C)[C@H](O)[C@@H](O)[C@H]6O)[C@@](C)(CO)[C@@H]5CC[C@]43C)[C@@H]12` 57.6

====

The molecules listed here are annotated with their Cmax.
Test: Cmax in colon of ICR mouse at 15 mg/kg, IG measured for 12 hrs by LC-MS/MS analysis
Type: ADME, organism-based
Settings: po
Report as a plain number; the unit ng/mL is understood.

C=C(C)[C@@H]1CC[C@]2(C(=O)O[C@@H]3O[C@H](CO[C@@H]4O[C@H](CO)[C@@H](O[C@@H]5O[C@@H](C)[C@H](O)[C@@H](O)[C@H]5O)[C@H](O)[C@H]4O)[C@@H](O)[C@H](O)[C@H]3O)CC[C@]3(C)[C@H](CC[C@@H]4[C@@]5(C)CC[C@H](O[C@@H]6OC[C@H](O)[C@H](O)[C@H]6O[C@@H]6O[C@@H](C)[C@H](O)[C@@H](O)[C@H]6O)[C@@](C)(CO)[C@@H]5CC[C@]43C)[C@@H]12: 7.12

// next entry
Look up and report measured Cmax for this entry: `C=C(C)[C@@H]1CC[C@]2(C(=O)NCCCCCC(=O)OC)CC[C@]3(C)[C@H](CC[C@@H]4[C@@]5(C)CC[C@H](O[C@@H]6OC[C@H](O)[C@H](O)[C@H]6O[C@@H]6O[C@@H](C)[C@H](O)[C@@H](O)[C@H]6O)[C@@](C)(CO)[C@@H]5CC[C@]43C)[C@@H]12` 1110

====

The compounds listed here are annotated with their Tmax.
Assay: Tmax in colon of ICR mouse at 15 mg/kg, IG measured for 12 hrs by LC-MS/MS analysis
Assay type: ADME, organism-based
Conditions: po
Report as a plain number; the unit h is understood.

C=C(C)[C@@H]1CC[C@]2(C(=O)O[C@@H]3O[C@H](CO[C@@H]4O[C@H](CO)[C@@H](O[C@@H]5O[C@@H](C)[C@H](O)[C@@H](O)[C@H]5O)[C@H](O)[C@H]4O)[C@@H](O)[C@H](O)[C@H]3O)CC[C@]3(C)[C@H](CC[C@@H]4[C@@]5(C)CC[C@H](O[C@@H]6OC[C@H](O)[C@H](O)[C@H]6O[C@@H]6O[C@@H](C)[C@H](O)[C@@H](O)[C@H]6O)[C@@](C)(CO)[C@@H]5CC[C@]43C)[C@@H]12: 1.92

// next entry
Look up and report measured Tmax for this entry: `C=C(C)[C@@H]1CC[C@]2(C(=O)NCCCCCC(=O)OC)CC[C@]3(C)[C@H](CC[C@@H]4[C@@]5(C)CC[C@H](O[C@@H]6OC[C@H](O)[C@H](O)[C@H]6O[C@@H]6O[C@@H](C)[C@H](O)[C@@H](O)[C@H]6O)[C@@](C)(CO)[C@@H]5CC[C@]43C)[C@@H]12` 1.58
